Quick record: Ki, human adenosine A2A receptors (Homo sapiens, UniProt P29274).
Give bare numbers, in nM.

Example results:
{"record smiles": "CC(C)(C)c1nc(-c2nccs2)c2sccc2n1", "value type": "Ki", "unit descriptor": "nM", "numeric value": 3}
{"record smiles": "CN(C)c1nc(-c2nccs2)c2sccc2n1", "value type": "Ki", "unit descriptor": "nM", "numeric value": 2}
{"record smiles": "CCc1nc(-c2nc(C)cs2)c2sccc2n1", "value type": "Ki", "unit descriptor": "nM", "numeric value": 1}
{"record smiles": "Nc1nc(-c2nccs2)c2sccc2n1", "value type": "Ki", "unit descriptor": "nM", "numeric value": 35}
{"record smiles": "Nc1nc(-c2ccco2)c2sccc2n1", "value type": "Ki", "unit descriptor": "nM", "numeric value": 14}

For every record below, what is its Ki?
1. C=CCNc1nc(-c2ccco2)c2sccc2n1
2. CC(C)c1nc(-c2nccs2)c2sccc2n1

Response line:
1: 19; 2: 1

====

Field: melting point. Provide a value for each of the compounds that follow.

Example results:
{"compound": "Cc1nc(-c2nc(Cl)nc3ccsc23)sc1C [Example 103]", "value type": "melting point", "result": "240 to 241 °C"}
{"compound": "Clc1nc(-c2cc3ccccc3s2)c2sccc2n1 [Example 17]", "value type": "melting point", "result": "231 to 231.6 °C"}
{"compound": "C=CCNc1nc(-c2nccs2)c2sccc2n1 [Example 112]", "value type": "melting point", "result": "128 to 129 °C"}

For every record below, what is its melting point?
1. Clc1nc(-c2ccsc2)c2sccc2n1 [Example 156]
2. CN(C)c1nc(-c2ccco2)c2scc(N)c2n1 [Example 51]
3. O=[N+]([O-])c1cc2nc(Cl)nc(-c3ccco3)c2s1 [Example 162]
4. Clc1nc(-c2ccccn2)c2sccc2n1 [Example 24]
5. CN(C)c1nc(-c2ccco2)c2scc(NC(=O)c3ccccc3)c2n1 [Example 57]
6. C[Si](C)(C)CCOCn1cc(-c2nc(Cl)nc3ccsc23)cn1

Response line:
1: 117.7 to 118.2 °C; 2: 145.8 to 146.5 °C; 3: 204 to 204.9 °C; 4: 209.2 to 209.5 °C; 5: 192.2 to 192.8 °C; 6: 108 to 109 °C

====

Field: melting point. Provide a value for each of the compounds that follow.

Example results:
{"compound": "c1csc(-c2nc(-c3nccs3)c3sccc3n2)c1 [Example 153]", "result": "221.9 °C"}
{"compound": "CN(C)c1nc(-c2ccco2)c2scc([N+](=O)[O-])c2n1 [Example 44]", "result": "182.8 to 183.8 °C"}
{"compound": "CN(C)c1nc(-c2cnn(COCC[Si](C)(C)C)c2)c2sccc2n1", "result": "60 to 61 °C"}
{"compound": "CN(C)c1nc(-c2ccccc2)c2sccc2n1 [Example 159]", "result": "112.9 to 114.1 °C"}

For every record below, what is its melting point?
1. Clc1nc(-c2ccoc2)c2sccc2n1 [Example 160]
2. CCc1nc(-c2ncc(-c3ccccc3)o2)c2sccc2n1 [Example 106]
3. CCc1nc(-c2nncn2COCC[Si](C)(C)C)c2sccc2n1
4. CCc1nc(-c2nc(CC)nc3ccsc23)c2sccc2n1 [Example 119]
5. COCCNc1nc(-c2ccco2)c2scc(Br)c2n1 [Example 71]
6. Clc1nc(-c2ccccc2)c2sccc2n1 [Example 158, 2-chloro-4-phenylthieno[3,2-d]pyrimidine]

Response line:
1: 129.3 to 129.9 °C; 2: 170 to 170.5 °C; 3: < 100 °C; 4: 179 °C; 5: 65 to 65.4 °C; 6: 146.5 to 147.2 °C

====

Field: melting point. Provide a value for each of the molecules that follow.

Example results:
{"record smiles": "CN(C)c1nc(-c2cnn(C)c2)c2sccc2n1", "melting point": "175.4 to 175.9 °C"}
{"record smiles": "CN(C)c1nc(-c2ccsc2)c2sccc2n1", "melting point": "119 to 119.4 °C"}
{"record smiles": "CN(C)c1nc(-c2ccnn2C)c2sccc2n1", "melting point": "126.5 to 127 °C"}

Given item CCOC(=O)Cn1ccnc1-c1nc(N(C)C)nc2ccsc12 , the value recorded as its melting point is 209 to 210 °C
